Let's look at some compounds and their measured Relative albumin-binding affinity, human blood plasma.
- Tested on: human serum albumin (HSA)
- methodNotes: Albumin-binding properties in human blood plasma (ultrafiltration assay)
- conditionParameters: ultrafiltration (Amicon, 10 kDa), human blood plasma dilutions in PBS pH 7.4, [HSA]-to-[radiopeptide] 0.01–20000, 0.006 nmol, 37 °C 30 min, γ-counter; inverse ratio of B50, [177Lu]Lu-uPAR-01 set as 1.00; average curve of 3 experiments
API doc: respond with a numeric literal and nothing else, no unit.

| compound | recordedResult |
| --- | --- |
| CC(C)C[C@H](NC(=O)[C@H](Cc1ccc(O)cc1)NC(=O)[C@@H](CCCNC(=N)N)NC(=O)[C@@H](CO)NC(=O)[C@H](Cc1ccccc1)NC(=O)[C@H](CC1CCCCC1)NC(=O)[C@H](CC(=O)O)NC(=O)CN1CCN(CC(=O)O)CCN(CC(=O)O)CCN(CC(=O)O)CC1)C(=O)N[C@@H](Cc1c[nH]c2ccccc12)C(=O)N[C@@H](CO)C(N)=O [[^177Lu]Lu-DOTA-AE105, metal not drawn, reference compound] | 0.01 |
| CC(C)C[C@H](NC(=O)[C@H](Cc1ccc(O)cc1)NC(=O)[C@@H](CCCNC(=N)N)NC(=O)[C@@H](CO)NC(=O)[C@H](Cc1ccccc1)NC(=O)[C@H](CC1CCCCC1)NC(=O)[C@H](CC(=O)O)NC(=O)[C@H](CCCCNC(=O)CCCc1ccc(I)cc1)NC(=O)[C@@H](N)CCCCNC(=O)CN1CCN(CC(=O)O)CCN(CC(=O)O)CCN(CC(=O)O)CC1)C(=O)N[C@@H](Cc1c[nH]c2ccccc12)C(=O)N[C@@H](CO)C(N)=O [[^177Lu]Lu-uPAR-04, metal not drawn] | 1.07 |
| CC(C)C[C@H](NC(=O)[C@H](Cc1ccc(O)cc1)NC(=O)[C@@H](CCCNC(=N)N)NC(=O)[C@@H](CO)NC(=O)[C@H](Cc1ccccc1)NC(=O)[C@H](CC1CCCCC1)NC(=O)[C@H](CC(=O)O)NC(=O)[C@H](CCCCNC(=O)CCCc1ccc(I)cc1)NC(=O)CN1CCN(CC(=O)O)CCN(CC(=O)O)CCN(CC(=O)O)CC1)C(=O)N[C@@H](Cc1c[nH]c2ccccc12)C(=O)N[C@@H](CO)C(N)=O [[^177Lu]Lu-uPAR-01, metal not drawn] | 1.00 |

Query: # query: Relative albumin-binding affinity, human blood plasma of entry CC(C)C[C@H](NC(=O)[C@H](Cc1ccc(O)cc1)NC(=O)[C@@H](CCCNC(=N)N)NC(=O)[C@@H](CO)NC(=O)[C@H](Cc1ccccc1)NC(=O)[C@H](CC1CCCCC1)NC(=O)[C@H](CC(=O)O)NC(=O)CCOCCOCCOCCOCCNC(=O)[C@H](CCCCNC(=O)CCCc1ccc(I)cc1)NC(=O)CN1CCN(CC(=O)O)CCN(CC(=O)O)CCN(CC(=O)O)CC1)C(=O)N[C@@H](Cc1c[nH]c2ccccc12)C(=O)N[C@@H](CO)C(N)=O [[^177Lu]Lu-uPAR-05, metal not drawn]
Result: 0.43

###

- methodNotes: Radiolytic stability of the radiopeptides in saline with L-ascorbic acid
- conditionParameters: 1 h; 50 MBq/nmol in saline, 150 MBq/300 µL, L-ascorbic acid (3 mg, 20 µL) and NaOAc (0.5 M, 30 µL); HPLC, product peak relative to t=0 (100%); average ± SD, n=3
measurementType: radiolytic stability, % intact radiopeptide (%)
Write down the numeric answer in % and omit the unit.

Would you please look over these solved cases?
| compound | unitsText | recordedResult |
| --- | --- | --- |
| CC(C)C[C@H](NC(=O)[C@H](Cc1ccc(O)cc1)NC(=O)[C@@H](CCCNC(=N)N)NC(=O)[C@@H](CO)NC(=O)[C@H](Cc1ccccc1)NC(=O)[C@H](CC1CCCCC1)NC(=O)[C@H](CC(=O)O)NC(=O)CCOCCOCCOCCOCCNC(=O)[C@H](CCCCNC(=O)CCCc1ccc(I)cc1)NC(=O)CN1CCN(CC(=O)O)CCN(CC(=O)O)CCN(CC(=O)O)CC1)C(=O)N[C@@H](Cc1c[nH]c2ccccc12)C(=O)N[C@@H](CO)C(N)=O [[^177Lu]Lu-uPAR-05, metal not drawn] | % | 99 |
| CC(C)C[C@H](NC(=O)[C@H](Cc1ccc(O)cc1)NC(=O)[C@@H](CCCNC(=N)N)NC(=O)[C@@H](CO)NC(=O)[C@H](Cc1ccccc1)NC(=O)[C@H](CC1CCCCC1)NC(=O)[C@H](CC(=O)O)NC(=O)[C@H](CCCCNC(=O)CCCc1ccc(I)cc1)NC(=O)[C@@H](N)CCCCNC(=O)CN1CCN(CC(=O)O)CCN(CC(=O)O)CCN(CC(=O)O)CC1)C(=O)N[C@@H](Cc1c[nH]c2ccccc12)C(=O)N[C@@H](CO)C(N)=O [[^177Lu]Lu-uPAR-04, metal not drawn] | % | 99 |
| CC(C)C[C@H](NC(=O)[C@H](Cc1ccc(O)cc1)NC(=O)[C@@H](CCCNC(=N)N)NC(=O)[C@@H](CO)NC(=O)[C@H](Cc1ccccc1)NC(=O)[C@H](CC1CCCCC1)NC(=O)[C@H](CC(=O)O)NC(=O)[C@H](CCCCNC(=O)CCCc1ccc(I)cc1)NC(=O)CN1CCN(CC(=O)O)CCN(CC(=O)O)CCN(CC(=O)O)CC1)C(=O)N[C@@H](Cc1c[nH]c2ccccc12)C(=O)N[C@@H](CO)C(N)=O [[^177Lu]Lu-uPAR-01, metal not drawn] | % | 100 |

// switching to the query compound
Query: Item under review: CC(C)C[C@H](NC(=O)[C@H](Cc1ccc(O)cc1)NC(=O)[C@@H](CCCNC(=N)N)NC(=O)[C@@H](CO)NC(=O)[C@H](Cc1ccccc1)NC(=O)[C@H](CC1CCCCC1)NC(=O)[C@H](CC(=O)O)NC(=O)CN1CCN(CC(=O)O)CCN(CC(=O)O)CCN(CC(=O)O)CC1)C(=O)N[C@@H](Cc1c[nH]c2ccccc12)C(=O)N[C@@H](CO)C(N)=O [[^177Lu]Lu-DOTA-AE105, metal not drawn, reference compound] . Reported radiolytic stability, % intact radiopeptide?
Result: 98
